Biological target: full-length beta-Catenin (Uniprot ID P35222) (Homo sapiens)
Construct: 10 nM full-length beta-Catenin (Uniprot ID P35222)
Test: Fluorescence polarization IC50 (beta-catenin / 5FAM-TCF4 10-53 competition)
Assay type: binding
Conditions: fluorescence polarization; read-out: beta-Catenin FP IC50
quantity-kind: pIC50
One number for each entry, as −log10 of the molar value.

Recorded pIC50, per entry:
{"columns": ["compound", "pIC50"],
 "data": [
  ["CC(=O)N1CCC[C@]12CC=CCCCC1(CCCC=CCCCOC(=O)N3CC[C@@](C(=O)N[C@@H](Cc4ccsc4)C(=O)N[C@@H](Cc4csc5ccccc45)C(=O)N[C@@H](CCC(N)=O)C(N)=O)(C3)NC(=O)[C@H](CC(C)C)NC(=O)[C@H](Cc3ccccc3)NC(=O)[C@H](C)NC(=O)[C@H](C)NC(=O)[C@H](CC(N)=O)NC(=O)[C@H](CC(N)=O)NC1=O)NC(=O)[C@H](CC(C)(C)C)NC(=O)[C@H](CC(=O)O)NC2=O (stereo partly drawn)", 6.47],
  ["CC(=O)N1CCC[C@]12CC=CCCCC1(CCCC=CCCCOC(=O)N3CC[C@@](C(=O)N[C@@H](Cc4ccccc4)C(=O)N[C@@H](Cc4csc5ccccc45)C(=O)N[C@@H](CO)C(N)=O)(C3)NC(=O)[C@H]([C@@H](C)O)NC(=O)[C@H](Cc3ccccc3)NC(=O)[C@H](CC(C)C)NC(=O)[C@H](C)NC(=O)[C@H]([C@@H](C)O)NC(=O)[C@H](CC(=O)O)NC1=O)NC(=O)[C@H](CC(C)(C)C)NC(=O)[C@H](CC(=O)O)NC2=O (stereo partly drawn)", 6.82]
]}

Next:
Ask: Please report the recorded pIC50 for CC(=O)N1CCC[C@]12CC=CCCCC1(CCCC=CCCCCCC[C@@](C)(C(=O)N[C@@H](Cc3ccccc3Cl)C(=O)N[C@@H](Cc3csc4ccccc34)C(=O)N[C@H](CO)[C@@H](C)O)NC(=O)[C@H]([C@@H](C)O)NC(=O)[C@H](Cc3ccccc3)NC(=O)[C@H](C)NC(=O)[C@H](C)NC(=O)[C@H](CC(=O)O)NC(=O)[C@H](CC(=O)O)NC1=O)NC(=O)[C@H](CC(C)(C)C)NC(=O)[C@H](CC(=O)O)NC2=O (stereo partly drawn) .
Reply: 7.60

* * *

Molecular target: full-length beta-Catenin (Uniprot ID P35222) (Homo sapiens, UniProt P35222)
Construct: 10 nM full-length beta-Catenin (Uniprot ID P35222)
Sequence (P35222 1-781): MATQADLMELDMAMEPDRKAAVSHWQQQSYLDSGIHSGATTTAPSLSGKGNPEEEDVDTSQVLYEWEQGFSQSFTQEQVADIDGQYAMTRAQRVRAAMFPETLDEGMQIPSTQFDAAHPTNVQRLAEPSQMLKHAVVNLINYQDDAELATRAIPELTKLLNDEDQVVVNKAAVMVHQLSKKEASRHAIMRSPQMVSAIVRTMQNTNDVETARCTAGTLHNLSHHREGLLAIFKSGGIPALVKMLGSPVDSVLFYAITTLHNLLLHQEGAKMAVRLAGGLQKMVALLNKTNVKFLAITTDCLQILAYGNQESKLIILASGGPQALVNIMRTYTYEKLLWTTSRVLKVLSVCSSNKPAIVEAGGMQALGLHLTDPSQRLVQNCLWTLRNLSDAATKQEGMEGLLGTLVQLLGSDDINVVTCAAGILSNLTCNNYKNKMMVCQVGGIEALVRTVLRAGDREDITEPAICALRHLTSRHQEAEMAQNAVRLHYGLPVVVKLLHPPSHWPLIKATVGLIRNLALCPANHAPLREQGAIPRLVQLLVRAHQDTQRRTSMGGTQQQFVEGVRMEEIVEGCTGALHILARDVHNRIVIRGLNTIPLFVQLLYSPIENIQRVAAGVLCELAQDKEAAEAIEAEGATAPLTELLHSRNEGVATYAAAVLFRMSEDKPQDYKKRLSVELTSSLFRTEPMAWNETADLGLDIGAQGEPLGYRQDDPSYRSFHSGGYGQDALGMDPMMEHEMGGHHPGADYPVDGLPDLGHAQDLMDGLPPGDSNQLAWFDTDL
Assay: Fluorescence polarization IC50 (beta-catenin / 5FAM-TCF4 10-53 competition)
Assay type: binding
Conditions: read-out: beta-Catenin FP IC50
quantity-kind: pIC50
Numbers only, as −log10 of the molar value.

{"columns": ["molecule", "pIC50"],
 "data": [
  ["CC(=O)N1CCC[C@]12CC=CCCCC1(CCCC=CCCCOC(=O)N3CC[C@@](C(=O)N[C@@H](Cc4ccccc4Cl)C(=O)N[C@@H](Cc4csc5ccccc45)C(=O)N[C@@H](CCC(N)=O)C(N)=O)(C3)NC(=O)[C@H](CC(C)C)NC(=O)[C@H](Cc3ccccc3)NC(=O)[C@H](C)NC(=O)[C@H](C)NC(=O)[C@H](CC(=O)O)NC(=O)[C@H](CC(=O)O)NC1=O)NC(=O)[C@H](Cc1cccc3ccccc13)NC(=O)[C@H](CC(=O)O)NC2=O (some centres unmarked)", 7.42]
]}

Next:
Ask: Look up pIC50 with full-length beta-Catenin (Uniprot ID P35222) (Homo sapiens, UniProt P35222) for this molecule: CC(=O)N1CCC[C@]12CC=CCCCC1(CCCC=CCCCOC(=O)N3CC[C@@](C(=O)N[C@@H](Cc4ccccc4Cl)C(=O)N[C@@H](Cc4csc5ccccc45)C(=O)N[C@@H](CO)C(N)=O)(C3)NC(=O)[C@H](CC3CCCCC3)NC(=O)[C@H](Cc3ccccc3)NC(=O)[C@H](C)NC(=O)[C@H](C)NC(=O)[C@H](CC(=O)O)NC(=O)[C@H](CC(=O)O)NC1=O)NC(=O)[C@H](CC1CCCCC1)NC(=O)[C@H](CC(=O)O)NC2=O (some centres unmarked)
Reply: 7.19

* * *

Target: full-length beta-Catenin (Uniprot ID P35222) (Homo sapiens)
Construct: 10 nM full-length beta-Catenin (Uniprot ID P35222)
Assay: Fluorescence polarization IC50 (beta-catenin / 5FAM-TCF4 10-53 competition)
Type: binding
Details: fluorescence polarization; read-out: beta-Catenin FP IC50
Give IC50 for every item shown.
Give bare numbers, in nM.

{"columns": ["molecule", "quantity-kind", "reported-measurement"],
 "data": [
  ["CC(=O)N1CCC[C@]12CC=CCCCC1(CCCC=CCCCCCC[C@@](C)(C(=O)N[C@@H](Cc3ccsc3)C(=O)N[C@@H](Cc3csc4ccccc34)C(=O)N[C@@H](CCC(N)=O)C(N)=O)NC(=O)[C@H](CCC(N)=O)NC(=O)[C@H](Cc3ccccc3)NC(=O)[C@H](C)NC(=O)[C@H](C)NC(=O)[C@H](CCC(=O)O)NC(=O)[C@H](CC(=O)O)NC1=O)NC(=O)[C@H](C)NC(=O)[C@H](CC(=O)O)NC2=O (some centres unmarked) [I-427]", "IC50", 38.5]
]}

Next:
Ask: Please report the recorded IC50 for CC(=O)N1CCC[C@]12CC=CCCCC1(CCCC=CCCCOC(=O)N3CC[C@@](C(=O)N[C@@H](Cc4ccccc4C(F)(F)F)C(=O)N[C@@H](Cc4csc5ccccc45)C(=O)N[C@@H](CCC(N)=O)C(=O)N[C@@H](CC(C)C)C(=O)N[C@@H](Cc4ccccc4)C(N)=O)(C3)NC(=O)[C@H](CC(C)C)NC(=O)[C@H](Cc3ccccc3)NC(=O)[C@H](C)NC(=O)[C@H](C)NC(=O)[C@H](Cc3cccc(C(=O)O)c3)NC(=O)[C@H](CC(=O)O)NC1=O)NC(=O)[C@H](CC(C)(C)C)NC(=O)[C@H](CC(=O)O)NC2=O (some centres unmarked) .
Reply: 1470

* * *

Experiment: CHI Log D procedure
Type: physicochemical
Settings: pH 7.4
Give CHI Log D for every item shown.
One number for each entry.

Recorded CHI Log D, per entry:
{"columns": ["compound", "CHI Log D"],
 "data": [
  ["CC[C@@H](C)[C@@H]1NC(=O)[C@H](CC(=O)O)NC(=O)[C@]2(CC=CCCCC3(CCCC=CCCCCCC[C@@](C)(C(=O)N[C@@H](Cc4ccccc4)C(=O)N[C@@H](Cc4csc5ccccc45)C(=O)N[C@@H](CCC(N)=O)C(N)=O)NC(=O)[C@H](CC(N)=O)NC(=O)[C@H](Cc4ccccc4)NC(=O)[C@H](C)NC(=O)[C@H](C)NC(=O)[C@H](CCC(=O)O)NC(=O)[C@H](CC(=O)O)NC3=O)NC1=O)CCCN2C(C)=O (some centres unmarked) [I-476]", 2.317],
  ["CC(=O)N1CCC[C@]12CC=CCCCC1(CCCC=CCCCCCC[C@@](C)(C(=O)N[C@@H](Cc3ccccc3)C(=O)N[C@@H](Cc3c[nH]c4ccccc34)C(=O)N[C@@H](CCC(N)=O)C(N)=O)NC(=O)[C@H](C(C)C)NC(=O)[C@H](Cc3cccc(C(F)(F)F)c3)NC(=O)[C@H](C)NC(=O)[C@H](C)NC(=O)[C@H](CC(=O)O)NC(=O)[C@H](CC(=O)O)NC1=O)NC(=O)[C@H](C)NC(=O)[C@H](CC(=O)O)NC2=O (some centres unmarked) [I-239]", 2.074]
]}

The following compounds each have a reported value; give each one's CHI Log D.
1. CC[C@H](C)[C@@H]1NC(=O)[C@H](CC(=O)O)NC(=O)[C@]2(CC=CCCCC3(CCCC=CCCCCCC[C@@](C)(C(=O)N[C@@H](Cc4ccccc4)C(=O)N[C@@H](Cc4c[nH]c5ccccc45)C(=O)N[C@@H](CCC(N)=O)C(N)=O)NC(=O)[C@H](CCC(N)=O)NC(=O)[C@H](Cc4ccccc4)NC(=O)[C@H](C)NC(=O)[C@H](C)NC(=O)[C@H](CCC(=O)O)NC(=O)[C@H](CC(=O)O)NC3=O)NC1=O)CCCN2C(C)=O (some centres unmarked) [I-181]
2. CC(=O)N1CCC[C@]12CC=CCCCC1(CCCC=CCCCOC(=O)N3CC[C@@](C(=O)N[C@@H](Cc4ccsc4)C(=O)N[C@@H](Cc4csc5ccccc45)C(=O)N[C@@H](CCC(N)=O)C(N)=O)(C3)NC(=O)[C@H](CC(N)=O)NC(=O)[C@H](Cc3ccccc3)NC(=O)[C@H](C)NC(=O)[C@H](C)NC(=O)[C@H](CCC(=O)O)NC(=O)[C@H](CC(=O)O)NC1=O)NC(=O)[C@H](CC(C)(C)C)NC(=O)[C@H](CC(=O)O)NC2=O (some centres unmarked) [I-690]
3. CC(=O)N1CCC[C@]12CC=CCCCC1(CCCC=CCCCCCC[C@@](C)(C(=O)N[C@@H](Cc3ccccc3)C(=O)N[C@@H](CC3CNc4ccccc43)C(=O)N[C@@H](CCC(N)=O)C(N)=O)NC(=O)[C@H](C(C)C)NC(=O)[C@H](Cc3ccccc3)NC(=O)[C@H](C)NC(=O)[C@H](C)NC(=O)[C@H](CCC(=O)O)NC(=O)[C@H](CC(=O)O)NC1=O)NC(=O)[C@H](C)NC(=O)[C@H](CC(=O)O)NC2=O (some centres unmarked) [I-168]

Reply:
2.213
2.013
1.942
